Every entry's value here was drawn from ChEMBL document CHEMBL1201862.

The entries below come with measured EC50 values attached.
- system_name: Voltage-dependent T-type calcium channel subunit alpha-1H (Homo sapiens, UniProt O95180);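 note: channel activity triggered by adding a high calcium stimulation buffer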
- Sequence (O95180 whole entry): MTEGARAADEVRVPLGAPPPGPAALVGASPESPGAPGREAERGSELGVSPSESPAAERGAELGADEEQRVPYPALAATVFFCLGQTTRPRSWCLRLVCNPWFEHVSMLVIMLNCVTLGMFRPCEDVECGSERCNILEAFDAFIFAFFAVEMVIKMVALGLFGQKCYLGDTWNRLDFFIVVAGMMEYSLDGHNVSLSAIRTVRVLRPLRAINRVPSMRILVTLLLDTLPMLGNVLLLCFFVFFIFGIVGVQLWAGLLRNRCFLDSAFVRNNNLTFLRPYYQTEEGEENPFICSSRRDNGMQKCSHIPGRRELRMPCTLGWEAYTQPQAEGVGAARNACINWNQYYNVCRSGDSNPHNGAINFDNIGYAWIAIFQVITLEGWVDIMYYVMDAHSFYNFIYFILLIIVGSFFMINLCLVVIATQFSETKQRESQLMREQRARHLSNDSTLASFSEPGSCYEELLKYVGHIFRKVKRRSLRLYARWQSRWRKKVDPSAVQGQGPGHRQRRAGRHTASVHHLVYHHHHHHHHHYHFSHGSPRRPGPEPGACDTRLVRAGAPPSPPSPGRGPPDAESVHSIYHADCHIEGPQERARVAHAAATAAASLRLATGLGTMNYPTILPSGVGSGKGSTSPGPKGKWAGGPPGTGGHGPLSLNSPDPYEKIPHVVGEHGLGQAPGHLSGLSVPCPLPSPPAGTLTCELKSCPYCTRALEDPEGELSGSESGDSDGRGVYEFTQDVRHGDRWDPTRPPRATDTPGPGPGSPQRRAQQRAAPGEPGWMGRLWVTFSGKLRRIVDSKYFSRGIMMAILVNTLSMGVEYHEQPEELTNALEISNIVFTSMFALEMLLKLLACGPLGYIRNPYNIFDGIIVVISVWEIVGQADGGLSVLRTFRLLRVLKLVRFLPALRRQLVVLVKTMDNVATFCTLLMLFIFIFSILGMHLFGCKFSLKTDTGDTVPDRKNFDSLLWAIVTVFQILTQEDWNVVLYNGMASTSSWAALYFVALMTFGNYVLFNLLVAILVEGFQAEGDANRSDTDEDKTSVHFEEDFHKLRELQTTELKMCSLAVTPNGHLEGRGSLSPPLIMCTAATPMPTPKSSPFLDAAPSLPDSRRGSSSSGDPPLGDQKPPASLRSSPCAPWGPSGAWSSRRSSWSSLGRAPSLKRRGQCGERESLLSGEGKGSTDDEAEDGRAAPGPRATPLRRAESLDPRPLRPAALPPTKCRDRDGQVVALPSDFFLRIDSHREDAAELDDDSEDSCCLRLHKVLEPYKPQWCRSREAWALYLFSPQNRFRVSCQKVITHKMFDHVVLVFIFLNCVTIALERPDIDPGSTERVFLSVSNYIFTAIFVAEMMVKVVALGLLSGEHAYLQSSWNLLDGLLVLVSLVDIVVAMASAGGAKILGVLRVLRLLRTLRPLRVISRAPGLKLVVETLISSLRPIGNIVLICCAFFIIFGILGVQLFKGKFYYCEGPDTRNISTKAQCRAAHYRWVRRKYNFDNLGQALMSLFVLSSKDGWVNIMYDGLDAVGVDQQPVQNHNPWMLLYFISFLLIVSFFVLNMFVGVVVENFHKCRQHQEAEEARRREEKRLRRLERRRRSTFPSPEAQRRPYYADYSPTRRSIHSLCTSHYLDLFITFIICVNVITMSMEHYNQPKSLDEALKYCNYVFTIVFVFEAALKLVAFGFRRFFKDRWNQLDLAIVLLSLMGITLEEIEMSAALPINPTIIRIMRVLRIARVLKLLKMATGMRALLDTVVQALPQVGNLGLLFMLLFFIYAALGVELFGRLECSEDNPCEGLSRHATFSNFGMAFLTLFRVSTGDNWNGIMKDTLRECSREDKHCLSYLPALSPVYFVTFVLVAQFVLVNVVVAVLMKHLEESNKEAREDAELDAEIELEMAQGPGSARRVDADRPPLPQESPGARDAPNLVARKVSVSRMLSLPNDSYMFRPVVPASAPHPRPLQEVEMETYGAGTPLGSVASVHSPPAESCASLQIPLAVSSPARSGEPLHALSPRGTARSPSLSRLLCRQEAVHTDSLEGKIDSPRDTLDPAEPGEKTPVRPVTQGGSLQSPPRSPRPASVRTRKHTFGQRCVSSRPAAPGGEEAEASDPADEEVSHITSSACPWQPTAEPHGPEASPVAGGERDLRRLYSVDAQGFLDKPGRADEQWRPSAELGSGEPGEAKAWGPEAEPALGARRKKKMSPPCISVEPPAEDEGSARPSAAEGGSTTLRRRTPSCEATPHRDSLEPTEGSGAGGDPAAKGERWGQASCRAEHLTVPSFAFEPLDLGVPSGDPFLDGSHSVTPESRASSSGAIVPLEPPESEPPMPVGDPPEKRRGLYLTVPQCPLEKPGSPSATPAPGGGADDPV
- Type: functional
Active and inactive are the calls of the source.

Reference set (3 entries):
[
  {
    "molecule": "CCN(CC)c1ccc(/C=C/c2nc3ccccc3s2)cc1",
    "EC50": "6.85 µM (active)"
  },
  {
    "molecule": "COc1ccccc1N1CCN(C(=O)C2c3ccccc3Oc3ccccc32)CC1",
    "EC50": "3.44 µM (active)"
  },
  {
    "molecule": "CCN(Cc1ccccc1)C(c1ccc(C(F)(F)F)cc1)c1nnnn1C(C)(C)C (centres undefined)",
    "EC50": "11.8 µM (active)"
  }
]

Now for a further molecule.
Data point: CCC(CC)c1nnc(NC(=O)C2COc3ccccc3O2)s1 (centres undefined) ; EC50 = 3.85 µM (active)

====

- system_name: Short transient receptor potential channel 4 (Mus musculus)
- Sequence (Q9QUQ5 whole entry): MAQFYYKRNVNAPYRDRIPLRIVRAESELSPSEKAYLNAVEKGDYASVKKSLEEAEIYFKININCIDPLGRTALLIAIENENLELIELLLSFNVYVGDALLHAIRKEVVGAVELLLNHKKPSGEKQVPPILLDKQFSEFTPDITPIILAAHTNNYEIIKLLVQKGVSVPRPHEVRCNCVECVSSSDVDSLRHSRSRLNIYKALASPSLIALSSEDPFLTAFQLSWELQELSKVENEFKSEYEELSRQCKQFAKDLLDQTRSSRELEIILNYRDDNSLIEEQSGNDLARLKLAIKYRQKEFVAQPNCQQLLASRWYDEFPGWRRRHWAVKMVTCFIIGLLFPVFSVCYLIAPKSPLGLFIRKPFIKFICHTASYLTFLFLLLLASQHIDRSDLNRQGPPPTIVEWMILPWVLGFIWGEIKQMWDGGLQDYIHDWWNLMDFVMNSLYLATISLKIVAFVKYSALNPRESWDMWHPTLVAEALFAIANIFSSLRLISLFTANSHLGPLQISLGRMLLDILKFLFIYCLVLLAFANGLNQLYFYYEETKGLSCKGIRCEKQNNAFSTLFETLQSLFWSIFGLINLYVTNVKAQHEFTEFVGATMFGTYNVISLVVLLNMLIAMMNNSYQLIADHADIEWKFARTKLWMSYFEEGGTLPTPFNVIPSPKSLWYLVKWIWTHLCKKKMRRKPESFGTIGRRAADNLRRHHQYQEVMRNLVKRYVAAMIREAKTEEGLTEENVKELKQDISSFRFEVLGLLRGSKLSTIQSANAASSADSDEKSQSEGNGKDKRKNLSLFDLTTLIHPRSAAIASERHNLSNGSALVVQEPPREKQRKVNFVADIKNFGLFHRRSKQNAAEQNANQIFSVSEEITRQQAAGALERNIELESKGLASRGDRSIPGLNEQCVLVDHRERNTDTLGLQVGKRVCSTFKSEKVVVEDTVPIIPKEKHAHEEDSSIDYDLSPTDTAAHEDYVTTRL
- experiment_description: mouse TRPC4 channel inhibitors, dose response, cell-based, HEK293 TRPC4/mu-opioid, Fluo-4 calcium (AID 434942);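 note: potency of inhibitors blocking the TRPC4 calcium response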
- Assay type: functional
The source made the active and inactive calls. How the calls were made is not given here.
value_type: EC50

[
  {
    "mol": "CCOC(=O)C1(CCOc2ccccc2)CCN(Cc2cccn2-c2ncccn2)CC1",
    "system_name": "Short transient receptor potential channel 4 (Mus musculus)",
    "EC50": "1880 nM (active)"
  }
]

Data point: "c1ccc(-c2nc(NCc3ccco3)c3ccccc3n2)cc1" ; EC50 = 3760 nM (active)

Data point: "CCOc1ccc2[nH]c3c(N4CCN(c5ccccn5)CC4)ncnc3c2c1" ; EC50 = 1190 nM (active)

Data point: "CC(=O)N1CCN(c2ccccc2NC(=O)c2ccc3ccccc3c2)CC1" ; EC50 = 1500 nM (active)
